Target: A1PI (Homo sapiens)
Construct: Human plasma is currently the only approved source of therapeutic AlPI
Sequence (P01009 25-418): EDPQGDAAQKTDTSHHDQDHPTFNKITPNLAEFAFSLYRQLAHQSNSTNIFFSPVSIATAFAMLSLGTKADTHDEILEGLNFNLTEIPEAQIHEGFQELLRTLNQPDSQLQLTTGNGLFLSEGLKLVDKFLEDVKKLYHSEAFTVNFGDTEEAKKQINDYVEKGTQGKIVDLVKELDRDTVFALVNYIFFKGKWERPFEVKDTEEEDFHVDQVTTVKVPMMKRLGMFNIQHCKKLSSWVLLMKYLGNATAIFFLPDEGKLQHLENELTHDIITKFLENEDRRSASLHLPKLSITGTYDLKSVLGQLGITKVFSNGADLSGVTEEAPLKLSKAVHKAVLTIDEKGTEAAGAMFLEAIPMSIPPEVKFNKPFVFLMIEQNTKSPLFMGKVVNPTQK
Test: A1PI binding on peptide-resin column, injection of 1 mg A1PI in equilibration buffer
Details: VIFLVR point mutations; 1 mg A1PI, 20° C.
Ends that are not written are not given here.
QUANTITY MEASURED: % of Total A1PI Eluted by Fraction (Based on Absorbance at 280 nm), 2% Acetic Acid

SUBSTANCE: VIFLVR
TARGET DESC: A1PI (Homo sapiens)
MEAS VALUE: 92%
--
SUBSTANCE: S I F L V R: point mutation of VIFLVR, position 1 (SIFLVR)
TARGET DESC: A1PI (Homo sapiens)
MEAS VALUE: 81%
--
SUBSTANCE: A I F L V R: point mutation of VIFLVR, position 1 (AIFLVR)
TARGET DESC: A1PI (Homo sapiens)
MEAS VALUE: 92%

----------
Each item that follows carries a reported Percent A1PI Eluted by Fraction, 2% Acetic Acid.
Target: A1PI (Homo sapiens)
Construct: Human plasma is currently the only approved source of therapeutic AlPI
Assay: A1PI binding on peptide-resin column, injection of 1 mg A1PI in equilibration buffer
Details: 1 mg A1PI in equilibration buffer, 20° C.
Ends that are not written are not given here.
QUANTITY MEASURED: Percent A1PI Eluted by Fraction, 2% Acetic Acid (%)

SUBSTANCE: NWKRVR
MEAS VALUE: 7

SUBSTANCE: RRKYLW
MEAS VALUE: 18

SUBSTANCE: RYRIFI
MEAS VALUE: 65

SUBSTANCE: IKRYYN
MEAS VALUE: 5

SUBSTANCE: PYWIVR
MEAS VALUE: 45

SUBSTANCE: RAFWYI
MEAS VALUE: 28

SUBSTANCE: WKLWRW
MEAS VALUE: 33

SUBSTANCE: LIVHRW
MEAS VALUE: 36

SUBSTANCE: IIWLYK
MEAS VALUE: 55

SUBSTANCE: QYHFWY
MEAS VALUE: 4
